This collection of values is drawn from ChEMBL document CHEMBL1201862.

- Tested on: SK-OV-3
- test_name: NCI tumour cell line growth inhibition, 48 h
Calls of active or inactive are those of the source. No stated cut-off is given here; in the data, active = GI50 up to about 1.1 µM and inactive = higher.
Choose the fitting class; nothing outside TRUE for active, FALSE for inactive is accepted.

Past entries and their recorded results:
compound	qualitative_label
CC(=O)Oc1cc2c(cc1OC(C)=O)C1(C)CCC2(C)c2cc(OC(C)=O)c(OC(C)=O)cc21	FALSE
CC1=C(C(=O)NCc2ccccc2)C(c2ccccc2O)C(C(=O)NCc2ccccc2)=C(C)N1	FALSE
COc1cc(OC)c(OC)cc1/C=N/NC(=O)N/N=C/c1cc(OC)c(OC)cc1OC	FALSE
COc1cc2c(c(OC)c1OC)-c1ccc(SC)c(=O)cc1C(CC(=O)Oc1cccc([N+](=O)[O-])c1)C2 (stereo not given)	TRUE

Shifting focus to the compound that follows.
**Query** Each compound tested received a call. Report the one for N#Cc1ccc([N+](=O)[O-])cc1NC(N)=S .
**Result** FALSE

----------
- Test system: SF-539
- test_name: NCI tumour cell line growth inhibition, 48 h
The source made the active and inactive calls. Cut-off read from the data, not from the text of the source: active = GI50 up to about 1.1 µM and inactive = higher.
Listed molecules paired with reported GI50

**Query** Which measured GI50 value corresponds to COc1ccc(CNC2=C(NC(C)=O)C(=O)c3ccccc3C2=O)cc1 ?
**Result** 7.43 µM (inactive)

**Query** What do you get for O=C1CC2(CCNCC2)C(=O)N1N1CCOCC1 ?
**Result** > 100 µM (inactive)

----------
GI50 values for the compounds below.
- Test system: KM-20L2
- test_name: NCI tumour cell line growth inhibition, 48 h
Active and inactive are the calls of the source. Rule as the data show it: active = GI50 up to about 1.1 µM and inactive = higher.

Some compounds with recorded GI50:
compound	target_under_test	reported
O=C1c2ccccc2-c2cccc3ccc(Cc4ccc5ccccc5c4)c1c23	KM-20L2	> 100 µM (inactive)
O=C(CSc1nnc(Cc2ccccc2)o1)Nc1ccc(Cl)cc1	KM-20L2	78.5 µM (inactive)
COc1cc2c(cc1OC)c1c(OC)c(OC)cc3c1c1c2sc(=S)n1CC3	KM-20L2	> 100 µM (inactive)

**Query** What value of GI50 has been reported for the following compound? CCOC(=O)c1nc2ccc(Cl)cc2c2c1Cc1ccccc1-2
**Result** > 100 µM (inactive)

**Query** Can you handle CO/C(=N\N=C\c1ccc(Cl)cc1)c1ccncc1 next?
**Result** > 100 µM (inactive)

**Query** Same question for CCOC(=O)c1cc(Cl)ccc1OC(N)=O please.
**Result** > 100 µM (inactive)

**Query** # iterate: CCOCN1COCN(C)C1=O
**Result** > 100 µM (inactive)

**Query** And what about the compound Cc1ccc(NC(=O)C(=O)Cc2cc[n+]([O-])cc2)cc1 ?
**Result** > 100 µM (inactive)

----------
Quick reference for GI50 among some molecules
- System: HOP-92
- test_name: NCI tumour cell line growth inhibition, 48 h
Activity calls are given as the source filed them. No stated cut-off is given here; in the data, active = GI50 up to about 1.1 µM and inactive = higher.

Worked examples, 4 molecules total:
molecule	target_under_test	GI50
N/N=C1/CCCc2nonc21	HOP-92	> 100 µM (inactive)
BrC(Br)=C1C(=C(Br)Br)C(Br)C1Br (stereo not given)	HOP-92	1.34 µM (inactive)
CC(C)(C1=NC(C(C)(C)C)CO1)C1=N[C@@H](C(C)(C)C)CO1 (stereo not given in full)	HOP-92	> 100 µM (inactive)
CCCCCCCCCCCCC(O)[C@H]1CC[C@H](C(O)CCCCCC(=O)CCCCC2CC(C(C)=O)C(=O)O2)O1 (stereo not given in full)	HOP-92	10.4 µM (inactive)

Now turn to the next molecule.
**Query** Give the measured GI50 of CC(=O)NC1C(OCc2ccccc2)OC(CO)C(O)C1OC(C)C(=O)NC(C(=O)N[C@@H](CCC(=O)NCCNCCNc1c2ccccc2nc2cccc([N+](=O)[O-])c12)C(N)=O)C(C)C (stereo not given in full) .
**Result** 18.2 µM (inactive)
